experiment: Tmax in rat at 20 mg/kg; type: ADME, organism-based; set-up: dose 20 mg/kg; details: in vivo
assay_endpoint: Tmax (h)
Give your result in h as a bare value.

Notebook: CC(C)(O)Cc1ccc2c(c1)c1cc(Cl)ccc1c1nc(-c3c(C#N)cccc3C#N)[nH]c21 , Tmax read as 1

====

molecular target: Prostaglandin E synthase (Homo sapiens); test: Inhibition of mPGES1 in IL-1-beta-stimulated human A549 cells assessed as blockade of PGH2 to PGE2 conversion in presence of 50% fetal bovine serum; assay type: cell-based
Sequence (O14684 whole entry): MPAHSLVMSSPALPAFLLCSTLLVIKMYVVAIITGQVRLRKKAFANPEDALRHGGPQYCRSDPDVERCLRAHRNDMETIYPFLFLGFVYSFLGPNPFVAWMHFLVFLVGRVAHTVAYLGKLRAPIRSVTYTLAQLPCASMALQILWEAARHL
pIC50: −log10 of the molar value.
assay_endpoint: pIC50

Measured on Prostaglandin E synthase (Homo sapiens), CC(=O)c1ccc2c(c1)c1cc(C(C)=O)ccc1c1[nH]c(-c3c(F)cccc3Cl)nc21 has a documented pIC50 of < 4.30
